// data source = paper PMC6556873

Measurement Description: in vitro
Set-up: species or system HB2, HEK293
Test Context: human, ccd841 cells
// viability at 48 h, 10 µM lookup, one value per entry
Measurement Kind: viability at 48 h, 10 µM (%)

Molecule	Obs Value
CCC(C)NC(=O)NC(=O)CCl (stereo not shown)	91.8
Cc1ccc2nc(NC(=O)CCl)sc2c1	74.9
O=C(CCl)Nc1ccc(N2CCCCC2)nc1	61.5
O=C(CCl)NC1c2ccccc2-c2ccccc21	82.7
C=CC(=O)NC1CCCc2cnn(C(C)C)c21 (stereo not shown)	120
Cc1ccc(S(N)(=O)=O)cc1NC(=O)CCl	61.4
C=CC(=O)Nc1ccc(Cl)cc1	89.3
CN(CC(F)(F)F)C(=O)CCl	105
O=C(CCl)Nc1cccc(Cl)c1Cl	72.2
C=CC(=O)N1CCC2C(CCCN2Cc2ccccc2)C1 (stereo not shown)	116
O=C(CCl)NC(=O)c1ccccc1Br	113
C=CC(=O)N1Cc2ccc(S(=O)(=O)N(C)C)cc2C1	99.7
COc1ccc(C(=O)NNC(=O)CCl)cc1	81.5
C=CC(=O)N1C(C)CNCC1C.O=C(O)C(F)(F)F (stereo not shown)	109
O=C(CCl)N1CCOCC1	109
O=C(CCl)Nc1c(F)cc(F)cc1Br	59.6
C=CC(=O)NC1(c2nnc[nH]2)CCC1	96.7
CC1Cc2cc(S(N)(=O)=O)ccc2N1C(=O)CCl (stereo not shown)	34.2
C=CC(=O)NCC1(O)CCCC(C(F)(F)F)C1 (stereo not shown)	107

* * *

Measurement Description: in vitro
Parameters: species or system HB2, CCD841
Test Context: human, hek293 cells
Response field class: enum, chosen by comparing viability at 48 h, 10 µM against bottom end: < 10%; midrange: ≥ 10% and < 80%; top end: ≥ 80%

Molecule	Group
N#Cc1ccc(CNC(=O)CCl)cc1	top end
O=C(CCl)NCC(F)(F)F	top end
O=C(CCl)NC(=O)NCc1cccs1	midrange
CC(=O)c1cc2c(cc1NC(=O)CCl)OCO2	midrange
Cc1cc(CNC(=O)CCl)cc(C)c1O	top end
Cc1n[nH]c(=O)c2c(NC(=O)CCl)oc(C)c12	top end
CS(=O)(=O)c1ccc(NC(=O)CCl)cc1	bottom end
Cc1cc(Cl)ccc1NC(=O)CCl	bottom end
C=CC(=O)N1Cc2ccccc2OC(C)(C)C1	top end
O=C(CCl)Nc1ccccc1N1CCCC1	top end
CC(=O)N1CCc2cc(NC(=O)CCl)ccc21	bottom end
O=C(CCl)Nc1ccc(F)c(F)c1	bottom end
NS(=O)(=O)c1ccc(Cl)c(NC(=O)CCl)c1	midrange
COC(=O)c1cc(NC(=O)CCl)cn1C	midrange
CC1CCc2c(sc(NC(=O)CCl)c2C(N)=O)C1 (stereo not shown)	midrange
Cc1sc(NC(=O)CCl)c(C)c1C	bottom end

* * *

Measurement Description: in vitro
Parameters: species or system HB2, CCD841
Test Context: human, hek293 cells
I'd appreciate it if you marked entries condition met when viability at 48 h, 10 µM is lower than 50% and condition not met when it is not.

Molecule	Group
NC(=O)C1CCCN(C(=O)CCl)C1 (stereo not drawn) [PCM-0102495]	condition not met
O=C(CCl)N1CCCC1c1ccc2c(c1)OCCO2 (stereo not drawn) [PCM-0102298]	condition met
Cc1csc(CC(=O)NNC(=O)CCl)n1.Cl [PCM-0102095]	condition not met
CC(=O)c1oc2ccccc2c1NC(=O)CCl [PCM-0102918]	condition met
C=CC(=O)N1CCc2c([nH]c3ccccc23)C1 [PCM-0102650]	condition not met
O=C(CCl)Nc1nc(-c2ccco2)cs1 [PCM-0102979]	condition not met
O=C(CCl)Nc1nc(-c2ccc(F)cc2)cs1 [PCM-0102809]	condition met
CCc1nc(NC(=O)CCl)sc1C [PCM-0102231]	condition not met
Cc1ccc(CN(C)C(=O)CCl)cc1 [PCM-0103017]	condition not met
N#Cc1cccc(NC(=O)CCl)c1 [PCM-0103033]	condition met
C=CC(=O)N1CCCC1c1cc(C)on1 (stereo not drawn) [PCM-0102683]	condition not met
O=C(CCl)Nc1cc(F)ccc1C(=O)O [PCM-0102247]	condition not met
C=CC(=O)N=C1N=C2C=CC(I)=CN2Cc2ccccc21 [PCM-0102846]	condition not met
C=CC(=O)N1CCCC1C(=O)Nc1nc2ccccc2s1 (stereo not drawn) [PCM-0102681]	condition not met
Cc1ccc(C2=NN(C(=O)CCl)C(c3ccco3)C2)o1 (stereo not drawn) [PCM-0102102]	condition met
Cc1ccc(-c2cc(NC(=O)CCl)on2)cc1 [PCM-0102382]	condition not met
COC(=O)c1cccc(NC(=O)CCl)c1 [PCM-0103048]	condition met
O=C(CCl)Nc1ccc([N+](=O)[O-])cc1Br [PCM-0102848]	condition met
Cl.O=C(CCl)N1CCN(Cc2ccc(Cl)cc2)CC1 [PCM-0102818]	condition met
O=C(CCl)Nc1ccc(N2CCCC2=O)cc1 [PCM-0102915]	condition met
